Would you kindly list growth for each of these molecules?
# System: COLO 205 colon
# assayComment: NCI-60 one-dose screen, 48 h (100 = growth as untreated, 0 = no growth, -100 = all killed)
# conditionParameters: 10 µM unless noted
This is part of a sample that, as a whole, favours compounds with a hit. Of some 83,000 tested, about 20% had one in any assay.
Just the number in %, nothing appended.

Q: Supply recorded growth for COc1cc(-c2c3c(cn2CCN2CCCCC2)-c2oncc2CC3)cc(OC)c1OC here.
Ans: 103

Q: For the molecule CCCCCCCCCCCCCCCCCCOP(=O)(O)O , give its reported growth.
Ans: 111

Q: Tell us which growth value is on record for S=C(N/N=C/c1cc(Cl)cc(Cl)c1)NC12CC3CC(CC(C3)C1)C2
Ans: 68.8

Q: Provide growth value for the following molecule: O=C(Nc1ccc(-n2cc(-c3ccncc3)c(-c3ccc(Cl)c(O)c3)n2)cc1)c1ccc(Cl)c(C(F)(F)F)c1
Ans: -1.56

Q: Provide measured growth value, entry: CC1=C(C)C(=O)C(C(C)C2=C(C)C(=O)C(C)=C(C)C2=O)=C(C)C1=O
Ans: 104

---

# System: NCI-H23 lung
# assayComment: NCI-60 one-dose screen, 48 h (100 = growth as untreated, 0 = no growth, -100 = all killed)
# conditionParameters: 10 µM unless noted
The panel holds about 83,000 compounds, 20% with a hit somewhere; the sample as a whole holds those more often.
Tag: T if measured growth is not below 90%, F if it is.

Q: Decide: growth of CCCCCCCCCCC(C[N+](C)(C)C/C=C/c1ccccc1)C(O)c1ccccc1 (configuration not stated) >= 90%?
Ans: F

Q: Given the entry CC(=O)Nc1nc(C)c(C(=O)NNC(=O)Nc2ccccc2)s1 , answer whether its growth meets or surpasses 90%.
Ans: T

Q: Could you tell me if the measured growth of CCN(CC)CCNc1ncnc2c1cnn2-c1ccc(Cl)cc1 reaches 90% or more?
Ans: F

Q: Answer whether growth of CCOc1nc(-c2ccccc2)cc2c(O)c(C(=O)N/N=C/c3ccccc3O)[nH]c(=O)c12 is greater than or equal to 90%.
Ans: F

Q: growth >= 90% for CC(=O)Oc1cc2ccccc2cc1C(C)C ?
Ans: T

Q: Hi team, for [2H]c1nc(=Nc2cc(NC(=O)C=C)c(N(C)CCN(C)C)cc2OC)[nH]c(-c2cn(C([2H])([2H])[2H])c3ccccc23)c1[2H] , is the recorded growth at or above 90%?
Ans: F

Q: Kindly determine if growth recorded for CC(C)(C)OC(=O)N1C/C(=C\c2ccccc2)C(=O)/C(=C/c2ccccc2)C1 is above or exactly 90%.
Ans: T

Q: Decide: growth of Oc1ccccc1\C=N/N=C/C=C/c1ccccc1 >= 90%?
Ans: T

Q: For this molecule, is measured growth 90% or higher? CN1CCN(Cc2ccc(NC(=O)c3ccc(C#Cc4c(N)ncc5ccc(F)cc45)cc3)cc2C(F)(F)F)CC1
Ans: F

Q: For this molecule, is measured growth 90% or higher? C=C1CCC2C3(C)COC(c4ccccc4)OC3CCC2(C)C1C/C=C1/C(=O)OCC1O (configuration not stated)
Ans: F

Q: Tell me whether growth is at least 90% here: COc1cc(-c2c3c(cn2CCN2CCCCC2)-c2oncc2CC3)cc(OC)c1OC
Ans: T

Q: Could you verify whether the entry Cc1nc(NC(=O)NC2CCCCC2)sc1C(=O)NN shows growth of no less than 90%?
Ans: T

Q: State whether the measured growth reaches 90%, counting equality as reaching it, for O=C(Nc1cccc2[nH]c(C(F)(F)F)nc12)c1ccc(F)cc1
Ans: F

Q: Could you tell me if the measured growth of CC1(C)N=C(N)N=C(N)N1c1cccc(CCCCOc2ccccc2)c1 reaches 90% or more?
Ans: F

Q: Threshold query (growth >= 90%) on CC(=O)Nc1nc(C)c(C(=O)N/N=C/N2CCOCC2)s1
Ans: T

Q: Check if growth >= 90% (inclusive). Item: CCC(CCCN1C(=O)c2ccccc2C1=O)Nc1cc(OC)cc2cccnc12 (configuration not stated)
Ans: T

Q: # bool: growth of O=C(/C=C1\C(=O)N(Cc2ccc([N+](=O)[O-])cc2)c2ccccc21)c1ccc(OCCN2CCCC2)cc1 >= 90%
Ans: F

Q: Quick check: does COc1ccc(C(=O)CN2C(=O)NC(c3ccccc3)(c3ccccc3)C2=O)cc1 have growth greater than or equal to 90%?
Ans: T

Q: Please check the record COc1cc(-c2nc3c(c(C)nc4c3nnn4-c3ccccc3)c(=O)o2)cc(OC)c1OC and state if its growth is at or above 90%.
Ans: T

Q: Exam item: decide whether the reported growth for CCCCCc1ccnc(CC(=O)c2ccc(OC)cc2)c1 is at least 90%.
Ans: T

Q: I'd appreciate it if you could say whether Ic1ccc(SSc2ccc(I)cc2)cc1 has growth at least equal to 90%.
Ans: T

Q: Decide: is the reported value of growth for N#Cc1c2cccnc2c2nnc3cc(Cl)c(Cl)cc3n12 equal to or greater than 90%?
Ans: F

Q: Confirm if growth reported for the molecule CCCCN(CCCC)CC(O)CN(CC)CC (configuration not stated) is 90% or above.
Ans: T

Q: Is reported growth greater than or equal to 90% here: Cc1c(Cc2ccccc2)c(=O)oc2c(C)c(OCC(=O)n3nc(C#N)cc3N)ccc12
Ans: T

Q: I'd appreciate it if you could say whether O=CN/N=C/c1ccc(Cl)c([N+](=O)[O-])c1 has growth at least equal to 90%.
Ans: F

Q: Decide: is the reported value of growth for Oc1ccccc1/C=N/N=C/c1c(O)ccc2ccccc12 equal to or greater than 90%?
Ans: F

Q: Textbook exercise: given the entry Nc1nc(-c2cccc(Br)c2)cc(-c2cc3ccccc3oc2=O)n1 , state whether its growth is greater than or equal to 90%.
Ans: T

Q: Please check the record Cc1cc2cn3c4ccc(O)cc4[nH]c(=O)c3c2cc1C and state if its growth is at or above 90%.
Ans: F

Q: Tell me whether growth is at least 90% here: O=C1C(=O)c2ccccc2C(O)=C1CCCc1ccc(Oc2ccccc2)cc1
Ans: F

Q: Is growth at least 90%? Consider N=c1c2c(=O)n3c(nc2nc2sc4ccc(Cl)cc4n12)-c1ccccc1Sc1ccccc1-3
Ans: F

Q: Reported growth at or above 90%? CC(=O)/C(=C\c1c(-c2ccccc2)[nH]c2ccccc12)S(=O)(=O)c1ccccc1
Ans: F

Q: Form field: growth at least 90%? Entry: CCOc1ccc2nc3ccc(Cl)cc3nc2c1
Ans: F

Q: Quick check, growth >= 90%? O=C(CCCC(=O)Nc1ccc(Cn2nnc3cc(Cl)c(Cl)cc32)cc1)Nc1ccc(CN2N=NC3C=C(Cl)C(Cl)=CC32)cc1 (configuration not stated)
Ans: F

Q: For this molecule, is measured growth 90% or higher? CC(=O)Nc1nc(C)c(C(=O)NN)s1
Ans: T

Q: Is the recorded value of growth equal to or greater than 90% for this molecule? COc1ccc2c(c1)/C(=C1/S/C(=N/c3nnc(C)s3)NC1=O)C(=O)N2Cc1ccc(Br)cc1
Ans: F

Q: Does C=CCSc1nnc(COc2ccc3c(C)c(Cc4ccccc4)c(=O)oc3c2C)o1 have a reported growth of at least 90%?
Ans: T

Q: Determine whether this molecule has growth no lower than 90%: Nc1nc2c(c3ncncc13)C(c1cccc(C(F)(F)F)c1)Cc1ncncc1-2 (configuration not stated)
Ans: F

Q: In plain terms: is recorded growth at least 90% for COc1cc(OC)c2c(=O)cc(-c3ccccc3)oc2c1 ?
Ans: T

Q: Say whether COc1cc(-c2nn(-c3ccc(NC(=O)Nc4cc(C(F)(F)F)cc(C(F)(F)F)c4)cc3)cc2-c2ccncc2)ccc1Cl shows growth of 90% or more.
Ans: F

Q: Entry CC(=O)Nc1ccc(C(=O)/C=C/c2ccc(N(C)C)cc2)cc1 : is its growth no less than 90%?
Ans: T
